ASSAY TARGET: CK1d (Homo sapiens, UniProt P48730)
Construct: purchased ReactionBiology
Sequence (P48730 whole entry): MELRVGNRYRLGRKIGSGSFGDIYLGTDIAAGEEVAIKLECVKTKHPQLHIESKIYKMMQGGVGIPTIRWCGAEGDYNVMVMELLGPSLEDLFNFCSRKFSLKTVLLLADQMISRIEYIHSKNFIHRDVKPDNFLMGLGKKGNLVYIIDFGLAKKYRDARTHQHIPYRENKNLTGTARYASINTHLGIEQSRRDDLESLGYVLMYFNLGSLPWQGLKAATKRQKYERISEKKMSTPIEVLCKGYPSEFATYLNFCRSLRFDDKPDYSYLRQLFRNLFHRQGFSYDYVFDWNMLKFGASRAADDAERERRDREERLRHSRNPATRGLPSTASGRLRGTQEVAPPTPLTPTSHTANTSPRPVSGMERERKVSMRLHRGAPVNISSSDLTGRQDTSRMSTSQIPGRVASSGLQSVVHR
TEST: Kinase activity test (ReactionBiology), % enzyme activity relative to DMSO
Assay type: biochemical
CONDITION CONTEXT: CK1d; 1 uM; replicate Data 1; read-out: % Enzyme Activity (relative to DMSO controls), Data 1
PROPERTY LABEL: remaining activity at 1 µM (%)
Your answer should be a plain number; it is taken to be in %.

query: Recorded remaining activity at 1 µM for Oc1cc(Cl)ccc1Oc1ccc(Cl)cc1Cl [Triclosan, reference compound] , please?
result: 94.8

query: Lookup CC(C)(C)NC(=O)[C@@H]1C[C@@H]2CCCC[C@@H]2CN1C[C@@H](O)[C@H](Cc1ccccc1)NC(=O)[C@H](CC(N)=O)NC(=O)c1ccc2ccccc2n1 [Saquinavir, reference compound]
result: 107

query: Lookup Nc1ncnc2c1ncn2[C@@H]1O[C@H](CO)[C@@H](O)[C@H]1O [Adenosine, reference compound]
result: 86.5

---

Would you kindly list % Enzyme Activity (relative to DMSO controls), Data 2 for each of these compounds?
ASSAY TARGET: DAPK1 (Homo sapiens)
Construct: purchased ReactionBiology
Sequence (P53355 whole entry): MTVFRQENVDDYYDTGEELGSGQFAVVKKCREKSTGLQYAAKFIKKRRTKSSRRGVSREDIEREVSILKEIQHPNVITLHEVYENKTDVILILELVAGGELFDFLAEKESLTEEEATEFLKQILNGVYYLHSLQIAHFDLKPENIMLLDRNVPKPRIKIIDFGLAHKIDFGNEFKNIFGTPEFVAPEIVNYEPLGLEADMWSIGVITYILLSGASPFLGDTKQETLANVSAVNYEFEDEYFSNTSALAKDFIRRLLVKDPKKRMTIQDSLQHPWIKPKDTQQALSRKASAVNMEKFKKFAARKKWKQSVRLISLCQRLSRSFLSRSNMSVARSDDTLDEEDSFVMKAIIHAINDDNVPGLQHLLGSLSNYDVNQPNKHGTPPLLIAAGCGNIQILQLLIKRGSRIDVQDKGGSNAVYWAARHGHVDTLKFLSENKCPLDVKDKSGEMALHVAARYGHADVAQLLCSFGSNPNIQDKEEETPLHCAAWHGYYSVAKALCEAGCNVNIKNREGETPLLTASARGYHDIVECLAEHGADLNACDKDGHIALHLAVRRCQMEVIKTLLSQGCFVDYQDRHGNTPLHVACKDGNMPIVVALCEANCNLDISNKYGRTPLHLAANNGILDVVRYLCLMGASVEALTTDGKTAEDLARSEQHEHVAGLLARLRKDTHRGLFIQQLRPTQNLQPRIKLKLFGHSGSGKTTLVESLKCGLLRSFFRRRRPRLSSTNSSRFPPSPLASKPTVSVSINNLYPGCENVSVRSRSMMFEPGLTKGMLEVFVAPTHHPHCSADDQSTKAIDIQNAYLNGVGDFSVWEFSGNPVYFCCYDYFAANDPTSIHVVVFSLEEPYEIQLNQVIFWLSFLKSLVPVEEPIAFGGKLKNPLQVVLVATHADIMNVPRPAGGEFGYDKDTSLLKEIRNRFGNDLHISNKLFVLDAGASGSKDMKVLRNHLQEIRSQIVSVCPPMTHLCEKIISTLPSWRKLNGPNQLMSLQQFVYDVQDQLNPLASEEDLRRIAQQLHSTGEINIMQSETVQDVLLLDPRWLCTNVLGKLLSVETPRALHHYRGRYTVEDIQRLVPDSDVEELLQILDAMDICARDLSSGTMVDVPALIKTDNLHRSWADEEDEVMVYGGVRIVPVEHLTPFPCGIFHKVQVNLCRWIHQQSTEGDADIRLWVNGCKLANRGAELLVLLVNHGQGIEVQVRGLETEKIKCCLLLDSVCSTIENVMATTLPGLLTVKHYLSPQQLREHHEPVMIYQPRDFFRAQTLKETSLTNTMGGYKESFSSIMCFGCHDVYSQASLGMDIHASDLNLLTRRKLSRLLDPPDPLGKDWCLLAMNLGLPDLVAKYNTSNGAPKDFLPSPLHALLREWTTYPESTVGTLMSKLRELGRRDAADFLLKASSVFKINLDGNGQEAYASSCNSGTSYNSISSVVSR
TEST: Kinase activity test (ReactionBiology), % enzyme activity relative to DMSO
Format: biochemical
CONDITION CONTEXT: DAPK1; 10 uM; replicate Data 2
Your answer should be a plain number; it is taken to be in %.

query: Missing value: % Enzyme Activity (relative to DMSO controls), Data 2, DAPK1 (Homo sapiens), entry C=C[C@H]1CN2CC[C@H]1C[C@@H]2[C@@H](O)c1ccnc2ccc(OC)cc12 . Fill in?
result: 97.67

query: Lookup COC(=O)N[C@H](C(=O)N[C@@H](Cc1ccccc1)[C@@H](O)CN(Cc1ccc(-c2ccccn2)cc1)NC(=O)[C@@H](NC(=O)OC)C(C)(C)C)C(C)(C)C
result: 76.27

query: Lookup C[C@@H]1O[C@@H]1P(=O)(O)O
result: 90.48

query: Lookup OC(Cn1cncn1)(Cn1cncn1)c1ccc(F)cc1F
result: 93.87

query: Lookup CS(=O)(=O)c1ccc(C2=C(c3ccccc3)C(=O)OC2)cc1
result: 90.82

query: Lookup CN1[C@@H]2CC[C@H]1C[C@@H](OC(=O)c1c[nH]c3ccccc13)C2
result: 89.43

query: Lookup COc1cc2c(c(OC)c1OC)-c1ccc(OC)c(=O)cc1[C@@H](NC(C)=O)CC2
result: 96.44

query: Lookup NC[C@H](O)c1ccc(O)c(O)c1 [Norepinephrine]
result: 92.59

query: Lookup CC(C)C[C@H](NC(=O)[C@H](Cc1ccccc1)NC(=O)c1cnccn1)B(O)O
result: 89.94

query: Lookup C[C@]12CCC(=O)C=C1CC[C@@H]1[C@@H]2[C@@H](O)C[C@@]2(C)[C@H]1CC[C@]2(O)C(=O)CO [Hydrocortisone]
result: 98.66

query: Lookup N[C@H]1C(O)O[C@H](CO)[C@@H](O)[C@@H]1O (stereo partly drawn)
result: 104.13

query: Lookup Cc1ccnc2c1NC(=O)c1cccnc1N2C1CC1
result: 95.14

query: Lookup N=C(N)c1ccc(OCCCCCOc2ccc(C(=N)N)cc2)cc1
result: 88.42

query: Lookup Cn1c(=O)c2[nH]cnc2n(C)c1=O
result: 97.79

query: Lookup O=C1C(O)=C([C@H]2CC[C@H](c3ccc(Cl)cc3)CC2)C(=O)c2ccccc21
result: 93
